tested on: groupe de huit goûteurs expérimentés; experiment: Sweetening power judged by a panel of eight experienced tasters against a sucrose reference solution; type: in vivo; conditions: Table II; weight basis, relative to a 2 % sucrose solution
READOUT_LABEL: Pouvoir édulcorant

COMPOUND: O=C(O)CNC(=C[N+](=O)[O-])Nc1cc(Cl)cc(Cl)c1 [Exemple 29]
RESULT: 400
//
COMPOUND: C[C@H](NC(=Nc1cc(Cl)cc(Cl)c1)NCC(=O)O)C1CCCCC1 [Exemple 63]
RESULT: 70000
//
COMPOUND: COC(=O)c1ccc(N=C(NCC(=O)O)NCC2CCCCC2)cc1 [Exemple 60]
RESULT: 1300
//
COMPOUND: O=C(O)CNC(=Nc1ccccc1)NC1CCCCC1 [Exemple 42]
RESULT: 100
//
COMPOUND: N#Cc1ccc(N=C(NCC(=O)O)Nc2cccc3ccccc23)cc1 [Exemple 69]
RESULT: 60000
//
COMPOUND: C[C@H](NC(=Nc1ccc(C(F)(F)F)cc1)NCC(=O)O)c1ccccc1 [Exemple 11]
RESULT: 500
//
COMPOUND: Cc1cc(C)cc(N=C(NCC(=O)O)N[C@@H](C)c2ccccc2)c1 [Exemple 25]
RESULT: 30000
//
COMPOUND: CN(Cc1ccccc1)C(=Nc1ccc(C#N)cc1)NCC(=O)O [Exemple 33]
RESULT: 3000
//
COMPOUND: N#Cc1ccc(N=C(NCC(=O)O)NC2CCCCCC2)cc1 [Exemple 45]
RESULT: 60000
//
COMPOUND: CC(NC(=Nc1cc(Cl)cc(Cl)c1)N[C@H](C)C(=O)O)c1ccccc1 (stereo partly shown) [Exemple 86]
RESULT: 120
